Molecular target: Gadd45β/MKK7 interaction (Homo sapiens, UniProt O14733)
Construct: The GST-fused full-length kinase was coated for 16 h at 4° C., at a concentration of 42 nM; made in house
Sequence (O14733 1-419): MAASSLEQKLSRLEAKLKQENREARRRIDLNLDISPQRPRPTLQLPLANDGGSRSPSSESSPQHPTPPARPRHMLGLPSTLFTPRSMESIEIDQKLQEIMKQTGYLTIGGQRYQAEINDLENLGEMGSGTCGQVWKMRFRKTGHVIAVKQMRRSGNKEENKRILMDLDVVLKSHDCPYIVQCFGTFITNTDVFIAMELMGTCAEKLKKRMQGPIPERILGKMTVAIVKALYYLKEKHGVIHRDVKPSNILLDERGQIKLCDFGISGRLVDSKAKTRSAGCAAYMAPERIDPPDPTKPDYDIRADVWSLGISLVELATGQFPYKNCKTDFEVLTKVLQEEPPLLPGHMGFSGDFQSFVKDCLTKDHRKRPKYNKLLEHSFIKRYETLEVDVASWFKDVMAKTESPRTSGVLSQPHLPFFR
Experiment: ELISA competition assay of biotin-hGadd45β binding to coated GST-MKK7
Settings: Table V; peptides 0.01-10 nM; read-out: IC50 ELISA
Square brackets hold non-standard residues; d marks the D form. Peptide text beside a SMILES is read from it. * marks the point of attachment. NHPhenethyl = c1ccc(CCN*)cc1; Cbz = O=C(OCc1ccccc1)*; Bz = O=C(c1ccccc1)*
QUANTITY KIND: IC50 (pM)
The reply should contain only the number, in pM.

For reference, reported IC50 for NC(=O)[C@@H](Cc1ccccc1)NC(=O)[C@@H](CC(=O)O)NC(=O)[C@@H](Cc1ccc(O)cc1)NC(=O)OCc1ccccc1 [Compound 8, Z-Tyr-Asp-Phe-NH2] (Cbz-[dY]-[dD]-[dF]-NH2) stands at 162

Lab book: IC50 of O=C(O)C[C@@H](NC(=O)c1ccccc1)C(=O)N[C@H](Cc1c[nH]cn1)C(=O)NCCc1ccccc1 [Compound 4, X1-Asp-His-Y3] (Bz-[dD]-[dH]-NHPhenethyl) noted as 500

Entry NC(=O)[C@@H](Cc1ccccc1)NC(=O)[C@@H](Cc1c[nH]cn1)NC(=O)[C@@H](CC(=O)O)NC(=O)[C@@H](Cc1ccc(O)cc1)NC(=O)OCc1ccccc1 [Compound 1, Z-Tyr-Asp-His-Phe-NH2] (Cbz-[dY][dD][dH][dF]-NH2) , IC50 reported as 220
